ASSAY TEXT: Standard protocol for determination of kcat and KM (continuous spectrophotometric assay, Acetyl CoA hydrolysis at 235 nm)
Assay type: biochemical
TEST CONTEXT: purified protein; about 23° C.; pH 6.8; 0.2 mM acetyl CoA; glyphosate 0.125 to 10 mM
MEASUREMENT LABEL: Km (µM)

1. SEQ ID NO: 323: GAT polypeptide (protein, 14_7H9, GAT polypeptide) MIEVKPINAEDTYEIRHRILRPNQPLEACKYETDLLGGTFHLGGYYRGKLVSIASFHQAEHPELEGQKQYQLRGMATLEGYREQKAGSTLIRHAEELLRKKGADLLWCNARTSASGYYKKLGFSEQGEVYDIPPVGPHILMYKKLT
1300
2. SEQ ID NO: 351: GAT polypeptide (protein, 24C1, GAT polypeptide) MIEVKPINAEDTYEIRHRILRPNQPLEACKYETDLLGGTFHLGGYYRDRLISIASFHQAEHSELEGQKQYQLRGMATLEGYREQKAGSTLIRHAEELLRKKGADLLWCNARTSVSGYYKKLGFSEQGEVYDIPPIGPHILMYKKLT
900
3. SEQ ID NO: 279: GAT polypeptide (protein, 10_3G5, GAT polypeptide) MIEVKPINAEDTYEIRHRILRPNQPLEACKYETDLLGGTFHLGGYYRGKLVSIASFHQAEHPELEGQKQYQLRGMATLEGYREQKAGSTLIRHAEELLRKKGADLLWCNARTSASGYYKKLGFSEQGEVYDIPPTGPHILMYKKLT
2000
4. SEQ ID NO: 383: GAT polypeptide (protein, 6_16A5, GAT polypeptide) MIEVKPINAEDTYEIRHRILRPNQPLEACKYETDLLGGTFHLGGYYRGKLISIASFHQAEHSELEGQKQYQLRGMATLEGYREQKAGSTLIRHAEELLRKKGADLLWCNARTSASGYYKKLGFSEQGGVYDIPPVGPHILMYKKLT
1100
